Molecular target: T1, LILRA6-His (Acro, LI6-H82E2) (human, UniProt Q6PI73 24-447)
T1 construct: Bought protein. 'Human' stands at the head of the list of coated proteins; not shown: His tag
T1 sequence (Q6PI73 24-447 limits assumed): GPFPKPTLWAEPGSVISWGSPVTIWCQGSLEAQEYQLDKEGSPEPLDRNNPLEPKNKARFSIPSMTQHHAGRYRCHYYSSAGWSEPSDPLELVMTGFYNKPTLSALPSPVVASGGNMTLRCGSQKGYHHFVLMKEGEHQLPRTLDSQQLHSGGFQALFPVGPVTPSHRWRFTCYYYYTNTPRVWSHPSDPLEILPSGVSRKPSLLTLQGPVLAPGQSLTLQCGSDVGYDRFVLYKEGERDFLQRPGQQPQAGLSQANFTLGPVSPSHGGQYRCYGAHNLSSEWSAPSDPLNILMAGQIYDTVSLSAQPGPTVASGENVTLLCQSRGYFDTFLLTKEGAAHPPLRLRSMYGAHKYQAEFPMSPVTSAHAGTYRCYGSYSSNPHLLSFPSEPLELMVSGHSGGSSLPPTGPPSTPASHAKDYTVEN
Test: ELISA, coated protein 1 µg/mL, antibody 10 µg/mL
ENDPOINT LABEL: absorbance at 450 nm (absorbance at 450 nm)

BINDER	RESULT UNITS	READING
humanized antibody huP2-G9 (antibody, human IgG1, kappa, L234A L235A, V domains shown, Full chains; also called P2-G9H1L2) VH: EVQLQESGPGLVKPSQTLSLTCTVSGSSITSGYYWNWIRQHPGKGLEWIGYLSYDGSNNYNPSLKNLVTISRDTSKNQFSLKLSSVTAADTAVYYCAREGAHYSGTLSWFAYWGQGTLVTVSS VL: DIQMTQSPSSLSASVGDRVTITCRASENIYSNLAWYQQKPGKSPKLLVYAATNLADGVPSRFSGSGSGTDYTLTISSLQPEDFATYYCQHFWDTPYTFGGGTKVEIKR	absorbance at 450 nm	0.0449
fully human-derived antibody P2m (antibody, human IgG1, kappa, L234A L235A, V domains shown, Full chains) VH: QVQLVQSGAEVKKPGSSVKVSCKASGYTFTSYDISWVRQAPGQGLEWMGGIIPIFGTANYAQKFQGRVTITADESTSTAYMELSSLRSEDTAVYYCTAGIFLATAYWGQGTLVTVSS VL: DIQMTQSPSSMSASVGDRVTISCQASQDIQNYLNWYQQRPGQAPKLLIYDASTLETGVPSRFSGSGSGTYFTLTISSLQPEDVATYYCQQYENVPITFGQGTRLEIKR	absorbance at 450 nm	0.0453
humanized antibody huP2-E3 (antibody, human IgG4 S228P, kappa, F234A L235A, V domains shown, Full chains; The constant region is hIgG1(LALA) or hIgG4(LALA) with a kappa CL; also called P2-E3H6L2) VH: EVQLVQSGAEVKKPGASVKVSCKASGYTFTDYYMNWVKQAPGQRLEWMGDINPNSGGTSYNQKFKGRVTITVDKSGSTAYMELSSLRSEDTAVYYCARGGVTTVVATYWYFDVWGQGTTVTVSS VL: DIQMTQSPSSLSASVGDRVTITCRASENIYSNLAWYQQKPGKSPKLLVYAATNVADGVPSRFSGSGSGTDYTLTISSLQPEDFATYYCQQFWDTPFTFGQGTKLEIKR	absorbance at 450 nm	0.047
